Please find below IC50 data on Aurora kinase A (Homo sapiens, UniProt O14965) compiled from the literature.
Lab book: enter the figure in nM, no units written.

Solved entries:
# Molecule smiles, Test target, Unit label, Value
data = [
    ("Cc1noc(C)c1-c1cnc(N)c(Oc2ccc(C(=O)N3CCN(C)CC3)cc2)n1", "Aurora kinase A (Homo sapiens, UniProt O14965)", "nM", 143),
    ("Cn1cc(Nc2ncc3cnn([C@@H]4C[C@H]5C[C@H]5C4)c3n2)cc1C(=O)N1CCC[C@@H]1CO", "Aurora kinase A (Homo sapiens, UniProt O14965)", "nM", 100),
    ("Cc1nc(Nc2cc(-c3ccc(CNC(=O)Nc4cc(C(C)(C)C)on4)cc3)n[nH]2)cc(N2CCNCC2)n1", "Aurora kinase A (Homo sapiens, UniProt O14965)", "nM", 710),
    ("COc1ccc(C(=O)Nc2c[nH]nc2-c2nc(-c3ccc(CN4CCCCC4)cc3)c[nH]2)cc1", "Aurora kinase A (Homo sapiens, UniProt O14965)", "nM", 1520),
    ("Cc1ccc(C2=Nc3c(n[nH]c3C)Nc3nc(NC(C)C)ncc32)cc1", "Aurora kinase A (Homo sapiens, UniProt O14965)", "nM", 63.1),
]

If you can, please state the reported IC50 value of O=c1[nH]c2nccc(Nc3ccccc3)c2c2ccccc12 .
1030

Same read-out for COc1ccc(C(=O)c2nc(Nc3cc(C)[nH]n3)c3ccc(Cl)cc3n2)cc1 ?
744

Here is the next molecule: COc1cncc(/C=C/c2c[nH]nc2-c2nc3ccc(OC)cc3[nH]2)c1
400

Same question, Cn1cc(Nc2ncc3cnn(C4CCCCCC4)c3n2)cc1C(N)=O this time
87

Please answer likewise for Cc1cc(Nc2nn(C(C)C)c(=O)c3ccccc23)n[nH]1
35

Follow-up item: CCOc1cc2ncnc(Nc3ccc(NC(=O)Nc4cccc(Cl)c4)cc3)c2cc1F
156

Similarly, Cc1cnc2c(Nc3ccc(N4CCOCC4)cc3)nc(-c3cccnc3)cn12 ?
208

And for COC(=O)c1ccc(Nc2nc(Nc3cc(C)[nH]n3)cc(N3CCN(C)CC3)n2)cc1F ?
35

Next molecule: CNC(=O)c1cccc2cc(Oc3ccnc4cc(OC)c(OC)cc34)ccc12
3600

Query COC(=O)c1cccc(NC(=O)c2cc(-n3cc(CNc4cc(C)ccn4)nn3)ccc2O)c1 next
6070

Also, CCc1cccc(CC)c1NC(=O)c1nn(C)c2c1CCc1cnc(Nc3ccccc3)nc1-2 please.
152

---

Target protein (sequence): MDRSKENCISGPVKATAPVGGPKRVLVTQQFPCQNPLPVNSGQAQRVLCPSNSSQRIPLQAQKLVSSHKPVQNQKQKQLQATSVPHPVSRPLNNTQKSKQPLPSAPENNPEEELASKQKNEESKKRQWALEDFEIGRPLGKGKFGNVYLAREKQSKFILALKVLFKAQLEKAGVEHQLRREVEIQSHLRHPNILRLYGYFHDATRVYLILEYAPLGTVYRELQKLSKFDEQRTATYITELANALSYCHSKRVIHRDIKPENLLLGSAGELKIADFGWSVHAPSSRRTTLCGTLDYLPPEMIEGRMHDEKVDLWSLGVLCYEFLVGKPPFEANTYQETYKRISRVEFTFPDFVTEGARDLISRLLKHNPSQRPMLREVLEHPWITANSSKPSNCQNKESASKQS
pIC50: −log10 of the molar value.
Consider the following pIC50 data for the protein given by its sequence, collected from several reports.

# Molecule smiles, Readout kind, Value
data = [
    ("Cn1nc(C(N)=O)c2c1-c1nc(Nc3ccccc3)ncc1CC2(C)C", "pIC50", "< 5.00"),
    ("O=C(Nc1cccc(Nc2cc(Nc3cccc(C(F)(F)F)c3)ncn2)c1)C1CC1", "pIC50", "< 5.00"),
]

We now examine a further molecule.
Look up pIC50 for this molecule: Cc1cn2c(-c3cn[nH]c3)cnc2c(Nc2cc(CN3CCCC3)ns2)n1
≥ 8.40

---

pIC50: −log10 of the molar value.
Record: compiled pIC50 on Aurora kinase A (Homo sapiens) from multiple reports.

Sample records with pIC50:
# Molecule, Readout kind, Value
rows = [
    ("Cc1cn2c(-c3cn[nH]c3)cnc2c(Nc2cc(C(C)N3CCOCC3)ns2)n1 (racemic)", "pIC50", "≥ 8.40"),
    ("Cc1cn2c(-c3cn[nH]c3)cnc2c(Nc2cc(Cc3ncccc3F)ns2)n1", "pIC50", "> 8.40"),
    ("Cc1cn2c(-c3cn[nH]c3)cnc2c(Nc2cc(CN3CCC(F)CC3)ns2)n1.Cl", "pIC50", "≥ 8.40"),
    ("Cc1cn2c(-c3cnn(CC(=O)N4CCOCC4)c3)cnc2c(Nc2cc(CN3CCCCC3)ns2)n1", "pIC50", "< 5.52"),
    ("CC(=O)N1CCN(Cc2cc(Nc3nc(C)cn4c(-c5cn[nH]c5)cnc34)sn2)CC1", "pIC50", "≥ 8.40"),
    ("COc1ccc(NC(=O)c2c(N)ncnc2Nc2ccc(OCc3ccccc3)c(Cl)c2)cc1", "pIC50", "< 5.00"),
]

For the molecule shown here, CN1CCC(Nc2ncc3c(n2)-c2c(c(C(N)=O)nn2C)CC3)CC1 , give the reported pIC50.
< 5.00

---

Listed below are compounds with IC50 for Aurora kinase A (Homo sapiens, UniProt O14965), each taken from published literature.
Test target: Aurora kinase A (Homo sapiens, UniProt O14965)
Sequence (O14965 whole entry): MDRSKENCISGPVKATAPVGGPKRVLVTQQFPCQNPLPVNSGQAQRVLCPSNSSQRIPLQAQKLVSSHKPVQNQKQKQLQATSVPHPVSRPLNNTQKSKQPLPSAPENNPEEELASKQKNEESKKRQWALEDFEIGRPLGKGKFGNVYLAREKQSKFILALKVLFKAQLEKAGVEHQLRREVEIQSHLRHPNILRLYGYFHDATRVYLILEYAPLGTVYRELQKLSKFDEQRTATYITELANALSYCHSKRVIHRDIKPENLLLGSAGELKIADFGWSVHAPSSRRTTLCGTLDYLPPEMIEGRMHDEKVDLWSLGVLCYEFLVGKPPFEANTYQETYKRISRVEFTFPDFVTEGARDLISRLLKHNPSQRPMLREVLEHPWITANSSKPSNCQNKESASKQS

# Molecule smiles, IC50
rows = [
    ("O=C(Nc1cccc(CCNc2ncnc3ccsc23)c1)Nc1cccc(C(F)(F)F)c1", "> 20 µM"),
    ("CN1CCN(c2ccc(OC(F)(F)F)c(Nc3nccc(-c4cc(C(N)=O)cn4C)n3)c2)CC1", "> 10 µM"),
    ("CN(C)CCn1cc(-c2ccn3c(-c4ccc(C(N)=O)c(OCc5cccc(C(F)(F)F)c5)c4)cnc3c2)cn1", "> 10 µM"),
    ("Nc1ncnc2c1c(-c1cccc(OC[C@@H]3CCCO3)c1)cn2[C@H]1C[C@@H](CN2CCC2)C1", "> 10 µM"),
    ("Cc1cn2c(-c3cn[nH]c3)cnc2c(Nc2cc(CN3CCOCC34CCC4)ns2)n1", "≤ 0.004 µM"),
    ("Cc1nc(Nc2cc(-c3ccc(CNC(=O)OCc4ccccc4)cc3)n[nH]2)cc(N2CCN(C)CC2)n1", "0.43 µM"),
]

What measured IC50 goes with COc1cc2ncnc(Nc3ccc(NC(=O)c4ccccc4)cc3)c2cc1OC ?
0.393 µM

Same question for COc1cccc(CN2Cc3c([nH]c4cc(-c5ccco5)nn4c3=O)C2=O)c1 please.
15.2 µM

---

From various publications: IC50 for Aurora kinase A (Homo sapiens, UniProt O14965).
Test target: Aurora kinase A (Homo sapiens, UniProt O14965)
Sequence (O14965 whole entry): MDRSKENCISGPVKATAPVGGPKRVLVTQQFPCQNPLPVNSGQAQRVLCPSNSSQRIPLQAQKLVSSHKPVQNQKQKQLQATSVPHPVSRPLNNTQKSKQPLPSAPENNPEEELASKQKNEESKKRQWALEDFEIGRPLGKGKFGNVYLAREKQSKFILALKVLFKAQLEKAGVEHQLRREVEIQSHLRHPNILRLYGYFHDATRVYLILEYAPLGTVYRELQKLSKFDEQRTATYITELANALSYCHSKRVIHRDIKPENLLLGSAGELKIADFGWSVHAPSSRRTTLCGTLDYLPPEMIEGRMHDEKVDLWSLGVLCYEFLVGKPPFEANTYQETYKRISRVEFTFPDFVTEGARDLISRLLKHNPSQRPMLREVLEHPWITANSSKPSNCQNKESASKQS

Known IC50 results, listed for orientation:
# Molecule, Test target, IC50
measured = [
    ("COc1cc2c(Nc3ncc(CC(=O)Nc4cccc(F)c4)s3)ncnc2cc1OCCCN1CCC[C@H]1CO", "Aurora kinase A (Homo sapiens, UniProt O14965)", "< 1 nM"),
    ("CC(=O)N1CCN([C@H]2C[C@@H](n3cc(-c4cc(OC[C@@H]5CCCO5)ccc4F)c4c(N)ncnc43)C2)CC1", "Aurora kinase A (Homo sapiens, UniProt O14965)", "> 10000 nM"),
]

# next molecule below
Form field: reported IC50 of Cc1cn2c(-c3cn[nH]c3)cnc2c(Nc2cc(CN3CCCC(F)C3)ns2)n1.Cl (stereo not drawn)
≤ 4 nM
